- target-desc: Ataxin-2 (Homo sapiens)
- experiment-description: qHTS for Inhibitors of ATXN expression.
- Assay type: functional
The campaign covered roughly 400,000 compounds. About 2,100 (0.53%) were called active. Roughly 14% stayed inconclusive and do not appear here. How the calls were made is not given here. The sample holds actives, similar compounds and a random draw of the others, so the mix is not that of the screen.
Answer with one of the outcomes given here: active, inactive

| compound | label-class |
| --- | --- |
| Oc1ccc(NCc2cccs2)cc1 | inactive |
| CN(C)CCCN(C(=O)/C=C/c1cccs1)c1nc2ccc(F)cc2s1 | active |

Query: Which outcome was assigned to CC(O)CNCCCCOc1ccc(OCc2ccccc2)cc1 (stereo unspecified) in this test?
Reply: inactive

Query: Which outcome was assigned to CN(C)CCCN(C(=O)C1COc2ccccc2O1)c1nc2ccc(F)cc2s1 (stereo unspecified) in this test?
Reply: inactive

Query: Which outcome was assigned to COc1ccc(OC)c2sc(N(CCN(C)C)C(=O)/C=C/c3cccs3)nc12 in this test?
Reply: active

Query: Which outcome was assigned to Cc1cc(NC(=O)Nc2ccc(OCc3ccccc3)cc2)n(C)n1 in this test?
Reply: inactive

Query: Which outcome was assigned to Cn1c(=O)n(Cc2ccc(Br)cc2)c2ccccc21 in this test?
Reply: inactive

Query: Which outcome was assigned to O=c1cc(Cl)c(-c2ccccc2)nn1Cc1ccc(Cl)cc1 in this test?
Reply: inactive

Query: Which outcome was assigned to CCc1cc2c(-c3ccccc3)cc(=O)oc2c2c1OCN(Cc1ccc(C)cc1)C2 in this test?
Reply: inactive

Query: Which outcome was assigned to Oc1ccc(NCc2ccccc2OCc2ccccc2)cc1 in this test?
Reply: active

Query: Which outcome was assigned to CCN(CCCn1c(=S)[nH]c2ccc(N3CCOCC3)cc2c1=O)c1ccccc1 in this test?
Reply: inactive
